Tested on: SF-539 CNS
Assay: NCI tumour cell line growth inhibition, 48 h
attribute-measured: TGI

Query: # lookup: TGI of CCOC(=O)C1CCCCN1CCc1c[nH]c2ccccc12 (stereo not drawn)
Result: > 100 µM

Query: Repeat with O=C1c2ccccc2C(=O)N1c1nc(-c2ccc(Cl)cc2)cc(N2N=C(c3ccc(Br)cc3)CC2c2ccccc2)n1 (stereo not drawn)
Result: 4.41 µM

Query: Repeat with CC1CC[C@]2(C(=O)O)CCC3(C)C(=CCC4[C@@]5(C)CC[C@H](OS(=O)(=O)c6ccccc6)C(C)(C)C5CC[C@]43C)[C@@H]2[C@H]1C (stereo partly drawn)
Result: > 100 µM

Query: Repeat with "C=[CH][Sn]([CH]=C)([O]c1cccc2cccnc12)[O]c1cccc2cccnc12"
Result: 9.27 µM

Query: Repeat with C[C@]12CC[C@H](OC3CCCCO3)CC1=CC[C@@H]1C2CC[C@]2(C)/C(=N/O)CCC12 (stereo partly drawn)
Result: > 100 µM

Query: Repeat with "Cc1nc(N)nc2ccccc12"
Result: > 100 µM

Query: Repeat with "CCOC(=O)C(=O)C(=O)NN(C)C1=NCCN1"
Result: > 100 µM

Query: Repeat with "S=c1nc(-c2ccnc(-c3nc(=S)[nH][nH]3)c2)[nH][nH]1"
Result: > 100 µM

Query: Repeat with "COC(OC)c1cc2c(cc1C(=O)[C@@]13CCC[C@@H]1NC(=O)O3)OCO2"
Result: > 100 µM

Query: Repeat with NCCC1CN(C(=O)OCc2ccccc2)c2ccccc21 (stereo not drawn)
Result: 14.4 µM

Query: Repeat with CC1(C)OC2C(COS(N)(=O)=O)SC(n3cnc4cncnc43)C2O1 (stereo not drawn)
Result: > 100 µM

Query: Repeat with "CS(=O)(=O)NC12CCC(c3ccccc31)c1ccccc12"
Result: > 100 µM

Query: Repeat with "Cc1ccc(S(=O)(=O)n2cc(C#N)c(C#N)c2)cc1"
Result: 39.9 µM

Query: Repeat with "O=C(Cc1csc2nc(-c3ccc(Br)cc3)cn12)N/N=C/c1ccc(O)cc1"
Result: 46.5 µM

Query: Repeat with NC1=NCC(CN2CCCC2)O1 (stereo not drawn)
Result: > 100 µM

Query: Repeat with NC(=O)Cc1nc2c(=O)[nH]cnc2n1C1OC(CO)C(O)C1O (stereo not drawn)
Result: > 100 µM

Query: Repeat with Cc1cc(C(O)CN(C)C)cc2c1ccc1cc(C(C)C)ccc12 (stereo not drawn)
Result: 3.59 µM

Query: Repeat with "CCOc1cc(-c2ccc[nH]2)[nH]c1/C=C1\N=C(C)C(C(=O)OC)=C1C"
Result: 0.968 µM

Query: Repeat with "O=C(Cc1ccccc1)NN1C(=O)/C(=C\c2ccc(O)cc2)SC1=Nc1ccccc1"
Result: > 100 µM

Query: Repeat with "CC(=O)CC(=O)CCC(=O)O"
Result: > 100 µM

Query: Repeat with CCOC(=O)C1(C(F)(F)F)N=C(CC)OC(N2CCOCC2)=N1 (stereo not drawn)
Result: > 100 µM

Query: Repeat with "O=C1c2ccccc2-c2[nH]c3cn[nH]c(=O)c3c21"
Result: > 100 µM

Query: Repeat with "Nc1[nH]c(=O)ncc1CO"
Result: > 100 µM

====

Tested on: U251 CNS
Experiment: NCI tumour cell line growth inhibition, 48 h
attribute-measured: TGI

Query: # lookup: TGI of "COc1ccc(S(=O)(=O)N(C)CC(=O)O)cc1"
Result: > 100 µM

Query: Repeat with NC(=O)Cc1nc2c(=O)[nH]cnc2n1C1OC(CO)C(O)C1O (centres undefined)
Result: > 100 µM

Query: Repeat with "Cc1cc2cc3c(cc2c(-c2ccc(N)cc2)n1)OCO3"
Result: > 100 µM

Query: Repeat with COC(=O)C1=C(O)C(C(=O)OC)[C@]2(O)[C@H](C(=O)OC)[C@H]1C[C@@H](c1ccc([N+](=O)[O-])cc1)[C@H]2C(=O)OC (some centres undefined)
Result: 28.6 µM

Query: Repeat with NC1=NCC(CN2CCCC2)O1 (centres undefined)
Result: > 100 µM

Query: Repeat with N#CC1C=Cc2ccccc2N1C(=O)Oc1ccccc1 (centres undefined)
Result: > 100 µM

Query: Repeat with "NC(=O)CO/N=C1/C(c2c(O)[nH]c3ccccc23)=Nc2ccccc21"
Result: > 100 µM

Query: Repeat with "O=C1C=CC(=O)c2c(Cl)ccc(O)c21"
Result: > 100 µM

Query: Repeat with CC1OC(OC2CCC3(C=O)C4CCC5(C)C(C6=CC(=O)OC6)CCC5(O)C4CCC3(O)C2)C(O)C(O)C1O (centres undefined)
Result: 0.000156 µM

Query: Repeat with "COC(=O)c1c(-c2ccc(Cl)cc2)cc2c3ccccc3n(C)c2c1C(=O)OC"
Result: > 100 µM

Query: Repeat with "CC/C=C\C/C=C\C[C@H](O)C/C=C1/C(=O)C=C[C@@H]1C/C=C\CCCC(=O)OC"
Result: 2.83 µM

Query: Repeat with "CCCNc1ncnc2[nH]ncc12"
Result: > 100 µM

Query: Repeat with CC1CC2(C)CC(=O)C1C1C(=O)N(CCN3CCCCC3)C(=O)C12 (centres undefined)
Result: > 100 µM

Query: Repeat with CCOC(=O)c1cnccc1CC1(C#N)c2ccccc2C=CN1C(=O)c1ccccc1 (centres undefined)
Result: > 100 µM
